System: IGROV1 ovarian
Method: NCI-60 one-dose screen, 48 h
Conditions used: 10 µM unless noted
The panel holds about 83,000 compounds, 20% with a hit somewhere; the sample as a whole holds those more often. Calls of active or inactive are those of the source. How the source made its calls: active means growth percent below 10; inactive means the rest.
Select the matching outcome among active, inactive

Some solved cases for reference:
INSERT INTO measurements (compound, classification) VALUES
  ('O=C1Nc2ccc(Cl)cc2/C1=C/c1ccc(OCc2ccc(F)cc2)cc1', 'inactive'),
  ('O=c1[nH]c(CCl)nc2c1cnn2-c1ccccc1', 'inactive'),
  ('Cc1ccc(-c2cc3nc(C(Cl)Cl)nc(-c4ccccc4)n3n2)cc1', 'inactive'),
  ('COc1ccc(-c2nn(-c3ccccc3)cc2/C=C/C(=O)c2ccc(NC(=O)CCCCCCC(=O)NO)cc2)cc1', 'inactive'),
  ('N#Cc1ccc(S(=O)(=O)Nc2ccc(-c3cnc(N)[nH]3)cc2)cc1', 'inactive');

# outcome recorded in this test, key = `O=c1cc(-c2ccccc2)nc2sc(-c3c[nH]c4ccc(Br)cc34)nn12`
inactive

# outcome recorded in this test, key = `Oc1ccccc1-c1nnc(SCc2ccc(O)c3ncccc23)n1-c1ccccc1`
active

# outcome recorded in this test, key = `COc1ccc(Cn2cc3c(c2-c2cc(OC)c(OC)c(OC)c2)CCCc2cnoc2-3)cc1N`
inactive

# outcome recorded in this test, key = `Oc1ccc(CSc2nnc(-c3ccc(Br)cc3)o2)c2cccnc12`
inactive

# outcome recorded in this test, key = Cn1c(SC(C(=O)Nc2ccc(F)cc2)c2ccccc2)nc2ccccc2c1=O (stereo not given)
inactive

----------
Test system: HCT-15 colon
Method: NCI-60 one-dose screen, 48 h (100 = growth as untreated, 0 = no growth, -100 = all killed)
Conditions used: 10 µM unless noted
Compounds without any hit were thinned out: in the full panel of roughly 83,000, 20% have a hit.
Measurement kind: growth (%)
I only need the number, in %, no unit after it.

As a guide, the following entries are already answered.
INSERT INTO measurements (smiles_record, measurement_kind, readout_units, reading) VALUES
  ('Nc1nc(-c2cccc([N+](=O)[O-])c2)c(N=Nc2cccc(Cl)c2)s1', 'growth', '%', 16.3),
  ('O=C1NC(=O)/C(=C/c2ccc(OCc3cc4ccccc4nc3Cl)cc2)S1', 'growth', '%', 88.3);

Looking up `C=CCn1c(SCC(=O)Nc2cccc(C(=O)/C=C/c3cc(OC)c(OC)c(OC)c3)c2)nc2ccccc2c1=O` , I see its growth listed as 11.6

Looking up `CS(=O)(=O)c1ccc2c(c1)c1c(n2S(=O)(=O)c2ccc(Cl)cc2)CCCC1` , I see its growth listed as 24

Looking up `CCOC(=O)c1c(NCC(=O)Nc2cccc([N+](=O)[O-])c2)sc2c1CCCC2` , I see its growth listed as -42.4

Looking up `CC1(C)CC[C@]2(C(=O)N3CCCN(CC#N)CC3)CC[C@]3(C)C(=CC[C@@H]4[C@@]5(C)CC[C@H](O)C(C)(C)[C@@H]5CC[C@]43C)[C@H]2C1` , I see its growth listed as 19.1

Looking up `COc1ccc(-c2ccc3c4c(cccc24)C(=O)N(N2C(=O)c4cccc5cccc(c45)C2=O)C3=O)cc1` , I see its growth listed as 99.1

Looking up `O=C1c2c(c3c4cccnc4[nH]c3c3ccc4ccccc4c23)C(=O)N1CCN1CCOCC1` , I see its growth listed as 47.5

Looking up `Oc1ccccc1-c1nnc(SCc2ccc(O)c3ncccc23)n1-c1ccccc1` , I see its growth listed as 17.6

Looking up `Oc1ccccc1/C=N/Nc1nc(N/N=C/c2ccccc2O)nc(N2CCOCC2)n1` , I see its growth listed as 3.87

----------
Test system: SF-295 CNS
Method: NCI-60 one-dose screen, 48 h
Conditions used: 10 µM unless noted
This is part of a sample that, as a whole, favours compounds with a hit. Of some 83,000 tested, about 20% had one in any assay. Active and inactive are the calls of the source. Rule for the calls: active = growth percent below 10; inactive = the rest.
Select the matching outcome among active, inactive

INSERT INTO assay_data (smiles_record, classification) VALUES
  ('Oc1ccccc1-c1nnc(SCc2ccc(O)c3ncccc23)o1', 'inactive');

# outcome recorded in this test, key = `NS(=O)(=O)c1ccc(Nc2nc(N/N=C/c3ccc(C(F)(F)F)cc3)nc(Nc3ccccc3)n2)cc1`
active

# outcome recorded in this test, key = `C#C[C@]1(O)CC[C@H]2[C@@H]3CC=C4c5sc(-c6ccc(OC)cc6)nc5CC[C@]4(C)[C@H]3CC[C@@]21C`
active

# outcome recorded in this test, key = `COc1ccc([C@H]2[C@H](O)C(=O)N2c2cc(OC)c(OC)c(OC)c2)cc1Cl`
active

# outcome recorded in this test, key = `Cc1nn(-c2ccc(Cl)cc2)c(C)c1N=Nc1ccc2oc(=O)ccc2c1`
inactive

----------
Tested on: NCI/ADR-RES ovarian
Method: NCI-60 one-dose screen, 48 h
Conditions used: 10 µM unless noted
The panel holds about 83,000 compounds, 20% with a hit somewhere; the sample as a whole holds those more often. Calls of active or inactive are those of the source. The calls were made as follows: active = growth percent below 10; inactive = the rest.
Select the matching outcome among active, inactive

INSERT INTO assay_data (compound, classification) VALUES
  ('Cc1ccc(/C=C/CC(=O)Nc2ccc(C(=O)Nc3ccc(F)cc3N)nc2)cn1', 'inactive'),
  ('Oc1ccc(CSc2nnc(-c3ccc(Cl)cc3)o2)c2cccnc12', 'active'),
  ('CC1(C)CC[C@]2(C(=O)N3CCCN(CC#N)CC3)CC[C@]3(C)C(=CC[C@@H]4[C@@]5(C)CC[C@H](O)C(C)(C)[C@@H]5CC[C@]43C)[C@H]2C1', 'inactive'),
  ('Clc1ccc(-c2csc(N/N=C/c3nc4ccccc4n3C3CC3)n2)cc1', 'inactive'),
  ('CN1CCN(c2ccc3c(c2)nc(NNC(=O)c2ccncn2)c2cccn23)CC1', 'inactive'),
  ('O=C(/C=C1\C=CN(CCCCF)c2ccccc21)n1ccc2ccccc21', 'inactive'),
  ('Cc1nn(-c2ccc(Cl)cc2)c(C)c1N=Nc1ccc2oc(=O)ccc2c1', 'inactive'),
  ('NC(N)=NS(=O)(=O)c1ccc(N=NC2C(=O)NN(c3ccccc3)C2=O)cc1 (configuration not stated)', 'inactive');

# outcome recorded in this test, key = `O=C(C[n+]1ccnc2ccccc21)c1ccc(O)c(O)c1`
inactive

# outcome recorded in this test, key = `COc1ccc(/C=N\NC(=O)c2ccc3nc(-c4ccc(Br)cc4)[nH]c3c2)cc1`
inactive

# outcome recorded in this test, key = `N/C(=N\OC(=O)CSc1nc2ccccc2s1)c1ccc2ccccc2c1`
inactive

# outcome recorded in this test, key = CC1OC(O[C@@H]2C(O)C(CO)OC(O[C@H]3COC(O[C@H]4CC[C@]5(C)[C@H]6CC[C@]78OC[C@@]9(CC[C@](C)(C=O)C[C@H]97)[C@H](O)C[C@@]8(C)[C@]6(C)CC[C@H]5C4(C)C)[C@@H](OC4OC(CO)[C@@H](O)[C@@H](O)[C@@H]4O)[C@@H]3O)[C@H]2OC2OC[C@@H](O)[C@@H](O)[C@@H]2O)[C@@H](O)[C@@H](O)[C@H]1O (some centres not stated)
inactive

# outcome recorded in this test, key = CCOC(=O)/C(F)=C/C1CC1CCc1cccc(C(F)(F)F)c1 (configuration not stated)
inactive

# outcome recorded in this test, key = `COc1ccc(Cn2cc3c(c2-c2cc(OC)c(OC)c(OC)c2)CCCc2cnoc2-3)cc1`
inactive

# outcome recorded in this test, key = CN1C(=O)N(C)C2Nn3c(s/c(=C\c4ccccn4)c3=O)=NC21 (configuration not stated)
inactive

# outcome recorded in this test, key = `CN(C)c1ccc(/C=N/Nc2nc(N/N=C/c3ccc(N(C)C)cc3)nc(N3CCOCC3)n2)cc1`
inactive

# outcome recorded in this test, key = `Cc1ccc(NC(=O)c2cccc(CN3CCN(C)CC3)c2)cc1Oc1ccc(-c2[nH]nc3ncnc(N)c23)cc1`
inactive

# outcome recorded in this test, key = `CC(C)C[C@H]1C(=O)O[C@H](C(C)C)C(=O)N(C)[C@@H](C(C)C)C(=O)O[C@H](C(C)C)C(=O)N(C)[C@@H](C(C)C)C(=O)O[C@H](C(C)C)C(=O)N1C`
active

----------
Tested on: HT29 colon
Method: NCI-60 one-dose screen, 48 h (100 = growth as untreated, 0 = no growth, -100 = all killed)
Conditions used: 10 µM unless noted
Compounds without any hit were thinned out: in the full panel of roughly 83,000, 20% have a hit.
Classify as follows. Reported growth greater than or equal to 70%: Yes. Reported growth below: No.

Some solved cases for reference:
INSERT INTO results (compound, classification) VALUES
  ('CCn1c2ccc(/C=N/NS(=O)(=O)CCN(C)C)cc2c2cc(/C=N/NS(=O)(=O)CCN(C)C)ccc21', 'Yes'),
  ('C#C[C@]1(O)CC[C@H]2[C@@H]3CC=C4c5sc(Nc6cccc(C)n6)nc5CC[C@]4(C)[C@H]3CC[C@@]21C', 'No'),
  ('O=C(/C=C1\C=CN(CCCCCCF)c2ccccc21)n1ccc2ccccc21', 'Yes'),
  ('O=C(COc1cccc2cccnc12)Nc1ccc(C(=O)/C=C/c2ccc(Cl)cc2)cc1', 'Yes'),
  ('COc1cnc2c(c1)C(=O)c1c-2n(CCCNCC2CC2)c(=O)c2cc(F)ccc12', 'No');

Decide: growth of `CCN1CCN(c2cc(C(=O)Nc3nc4ccc(Oc5ccnc(C(=O)NC)c5)cc4s3)cc(C(F)(F)F)c2)CC1` >= 70%?
No

Decide: growth of `CCn1c2ccc(/C=N/OCCCN(C)C)cc2c2cc(/C=N/OCCCN(C)C)ccc21` >= 70%?
No

Decide: growth of `C#C[C@]1(O)CC[C@H]2[C@@H]3CC=C4c5sc(Nc6ccncc6)nc5CC[C@]4(C)[C@H]3CC[C@@]21C` >= 70%?
No

Decide: growth of `COc1ccc(CN2C(=O)/C(=C/c3nc(CO)cs3)SC2=S)cc1` >= 70%?
Yes

Decide: growth of Nc1nc(N)c2c(n1)NC(c1ccccc1)CC(c1ccc(Nc3nc(NCCO)nc(Nc4ccc(Cl)cc4)n3)cc1)=N2 (centres undefined) >= 70%?
No

Decide: growth of `O=S(=O)(Nc1ccc(I)c(Cl)c1)c1ccc(-c2cnc(C3CC3)o2)cc1` >= 70%?
No

Decide: growth of `O=C(/C=C/c1cn(-c2ccccc2)nc1-c1ccc(Cl)cc1)c1cc2ccccc2oc1=O` >= 70%?
No
